Origin of measurements: ChEMBL document CHEMBL1201862

System: OVCAR-5
Test: NCI tumour cell line growth inhibition, 48 h
Calls of active or inactive are those of the source. Rule as the data show it: active = GI50 up to about 1.1 µM and inactive = higher.
endpoint-name: GI50

{"compound": "COC1O[C@@H]2COC(C)(C)O[C@@H]2C(=O)N1Nc1ccc([N+](=O)[O-])cc1 (stereo not given in full)", "meas-value": "> 100 µM (inactive)"}
{"compound": "O=C1c2ccccc2C(=O)c2c(O)c(NCCCNCCO)cc(O)c21", "meas-value": "11.3 µM (inactive)"}
{"compound": "CCOc1ncn(-c2ccc(NC(=S)NC34CC5CC(CC(C5)C3)C4)cc2)n1", "meas-value": "> 100 µM (inactive)"}
{"compound": "NS(=O)(=O)c1ccccc1C(=O)N/N=C(\\c1nc2ccc([N+](=O)[O-])cc2[nH]c1=O)C(O)c1ccc([N+](=O)[O-])cc1 (stereo not given)", "meas-value": "> 100 µM (inactive)"}
{"compound": "C1=C[C@]2(CCC13OCCO3)COc1ccccc12", "meas-value": "30.9 µM (inactive)"}
{"compound": "CCOC(=O)c1c(CN2CCNCC2)nc2ccc(Cl)cc2c1-c1ccccc1", "meas-value": "19.5 µM (inactive)"}
{"compound": "CC(=O)OCC1OC(n2c3c(cc(C#N)c2=O)CCCCCC3)C(OC(C)=O)C(OC(C)=O)C1OC(C)=O (stereo not given)", "meas-value": "> 100 µM (inactive)"}
{"compound": "O=C(CC(c1ccccc1)N1CCCCC1)c1ccccc1 (stereo not given)", "meas-value": "17.5 µM (inactive)"}
{"compound": "NCCCN(CCCCN(CCCN)Cc1ccccc1)Cc1ccccc1", "meas-value": "17.5 µM (inactive)"}
{"compound": "Cc1ccc(/C=C/C(=O)c2cccc3ccccc23)cc1", "meas-value": "14.4 µM (inactive)"}

---

Test system: CAKI-1
Experiment: NCI tumour cell line growth inhibition, 48 h
Structures can show the parent of a compound that is named as a salt. The source made the active and inactive calls. Cut-off read from the data, not from the text of the source: active = GI50 up to about 1.1 µM and inactive = higher.

{"molecule": "Cn1c(=O)c2c3ccccc3n(C)c2n(C)c1=O", "tested-on": "CAKI-1", "GI50": "> 100 µM (inactive)"}
{"molecule": "COC(=O)CC(=O)OC", "tested-on": "CAKI-1", "GI50": "> 100 µM (inactive)"}
{"molecule": "O=c1c(-c2ccccc2Cl)coc2cc(F)ccc12", "tested-on": "CAKI-1", "GI50": "29.1 µM (inactive)"}
{"molecule": "NC(=O)c1ncn2c(=O)n(CCl)nnc12", "tested-on": "CAKI-1", "GI50": "> 100 µM (inactive)"}
{"molecule": "O=C1CSC(=S)N1c1ccco1", "tested-on": "CAKI-1", "GI50": "> 100 µM (inactive)"}
{"molecule": "O=C(O)/C=C/C(=O)Nc1cccc2c1-c1ccccc1C2=O", "tested-on": "CAKI-1", "GI50": "4.26 µM (inactive)"}
{"molecule": "CC(C(O)Cc1ccccc1)N(C)/N=N/c1ccc([N+](=O)[O-])cc1 (stereo not drawn)", "tested-on": "CAKI-1", "GI50": "21.9 µM (inactive)"}
{"molecule": "Cc1ccc(N2CCN(CCC(=O)O)CC2)cc1", "tested-on": "CAKI-1", "GI50": "> 100 µM (inactive)"}
{"molecule": "COC(=O)/C=C\\C(C#N)(C#N)/N=C/c1cccc(OC)c1", "tested-on": "CAKI-1", "GI50": "1.92 µM (inactive)"}
{"molecule": "N[C@@H](Cc1ccc(N(CCCl)CCCl)cc1)C(=O)O [MELPHALAN HYDROCHLORIDE]", "tested-on": "CAKI-1", "GI50": "10.9 µM (inactive)"}
{"molecule": "CN(C(=O)C12C3C4C5C3C1(C(=O)C13C6C7C8C6C1C8C73)C5C42)C(C)(C)C (stereo not drawn)", "tested-on": "CAKI-1", "GI50": "> 50 µM (inactive)"}
{"molecule": "CCOC(=O)c1ccc(C)c(/N=N/N(C)C)c1", "tested-on": "CAKI-1", "GI50": "> 100 µM (inactive)"}
{"molecule": "CCCCNS(=O)(=O)c1n[nH]c(=O)[nH]c1=O", "tested-on": "CAKI-1", "GI50": "> 100 µM (inactive)"}
{"molecule": "CCCC(Sc1nc(N)nc2nc[nH]c12)C(=O)O (stereo not drawn)", "tested-on": "CAKI-1", "GI50": "41 µM (inactive)"}
{"molecule": "O=C(O)CNS(=O)(=O)c1ccc(NC(=O)CI)cc1", "tested-on": "CAKI-1", "GI50": "40.7 µM (inactive)"}
{"molecule": "O=C(O)CCC(NC(=O)c1ccc(Nc2nc3ccccc3nc2C(=O)O)cc1)C(=O)O (stereo not drawn)", "tested-on": "CAKI-1", "GI50": "> 100 µM (inactive)"}
{"molecule": "CCN(CC)CCn1nc(N)c2nc3cc(Cl)ccc3nc21", "tested-on": "CAKI-1", "GI50": "51.4 µM (inactive)"}
{"molecule": "O=C(c1cccc2ccccc12)N1CCC(C2CCN(C(=O)c3cccc4ccccc34)CC2)CC1", "tested-on": "CAKI-1", "GI50": "> 100 µM (inactive)"}
{"molecule": "c1ccc2c(c1)OC(N1CCCC1)c1cnc(N3CCCC3)nc1-2 (stereo not drawn)", "tested-on": "CAKI-1", "GI50": "20.9 µM (inactive)"}
{"molecule": "CCC(C)(C)C1CCC2c3c([nH]c4ccccc34)C3C(=O)N(c4ccc(OC)cc4)C(=O)C3C2C1 (stereo not drawn)", "tested-on": "CAKI-1", "GI50": "10.4 µM (inactive)"}
{"molecule": "CCOC(=O)C1=C(C)N(NC(N)=O)C2(N)N(NC(N)=O)C(C)=C(C(=O)OCC)C12C#N (stereo not drawn)", "tested-on": "CAKI-1", "GI50": "> 100 µM (inactive)"}
{"molecule": "Cc1ccc2c(ccc(/C=C\\c3cc(C)c4cccnc4c3O)[n+]2C)c1", "tested-on": "CAKI-1", "GI50": "5.53 µM (inactive)"}
{"molecule": "N#CSCc1nc2ccc(Cl)cc2c(-c2ccccc2)[n+]1[O-]", "tested-on": "CAKI-1", "GI50": "25.8 µM (inactive)"}
